Entries and their viscosity values follow.
- SETUP CONDITIONS: 333.2 K; 100.9 kPa; Liquid; Cone and plate viscometry
Give a bare numeral; the unit mPa·s is implied.

Solved cases (3 shown):
> print(dat)
                               query.smiles   val
1  CC(C)[n+]1ccn(C)c1.O=S(=O)([N-]S(=O)(=O)C(F)(F)F)C(F)(F)F  14.5
2  CC(C)n1cc[n+](C)c1.O=S(=O)([N-]S(=O)(=O)C(F)(F)C(F)(F)F)C(F)(F)C(F)(F)F  26.4
3  C[n+]1ccn(C(C)(C)C)c1.O=S(=O)([N-]S(=O)(=O)C(F)(F)F)C(F)(F)F  26.2

// next entry
Retrieve viscosity measured for C[n+]1ccn(C(C)(C)C)c1.O=S(=O)([N-]S(=O)(=O)C(F)(F)C(F)(F)F)C(F)(F)C(F)(F)F and print it.
50.7

The measured values listed here are drawn from the NIST ThermoML archive (doi:10.1021/acs.jced.9b00776).
